Origin of values: patent US20250114356A1

- test.system: wildtype LRRK2 (Homo sapiens, UniProt Q5S007)
- Construct: expressed in transfected cells; host or cells: HEK293 (ATCC CRL-1573), transient transfection, ubiquitin promoter
- Sequence (Q5S007 whole entry): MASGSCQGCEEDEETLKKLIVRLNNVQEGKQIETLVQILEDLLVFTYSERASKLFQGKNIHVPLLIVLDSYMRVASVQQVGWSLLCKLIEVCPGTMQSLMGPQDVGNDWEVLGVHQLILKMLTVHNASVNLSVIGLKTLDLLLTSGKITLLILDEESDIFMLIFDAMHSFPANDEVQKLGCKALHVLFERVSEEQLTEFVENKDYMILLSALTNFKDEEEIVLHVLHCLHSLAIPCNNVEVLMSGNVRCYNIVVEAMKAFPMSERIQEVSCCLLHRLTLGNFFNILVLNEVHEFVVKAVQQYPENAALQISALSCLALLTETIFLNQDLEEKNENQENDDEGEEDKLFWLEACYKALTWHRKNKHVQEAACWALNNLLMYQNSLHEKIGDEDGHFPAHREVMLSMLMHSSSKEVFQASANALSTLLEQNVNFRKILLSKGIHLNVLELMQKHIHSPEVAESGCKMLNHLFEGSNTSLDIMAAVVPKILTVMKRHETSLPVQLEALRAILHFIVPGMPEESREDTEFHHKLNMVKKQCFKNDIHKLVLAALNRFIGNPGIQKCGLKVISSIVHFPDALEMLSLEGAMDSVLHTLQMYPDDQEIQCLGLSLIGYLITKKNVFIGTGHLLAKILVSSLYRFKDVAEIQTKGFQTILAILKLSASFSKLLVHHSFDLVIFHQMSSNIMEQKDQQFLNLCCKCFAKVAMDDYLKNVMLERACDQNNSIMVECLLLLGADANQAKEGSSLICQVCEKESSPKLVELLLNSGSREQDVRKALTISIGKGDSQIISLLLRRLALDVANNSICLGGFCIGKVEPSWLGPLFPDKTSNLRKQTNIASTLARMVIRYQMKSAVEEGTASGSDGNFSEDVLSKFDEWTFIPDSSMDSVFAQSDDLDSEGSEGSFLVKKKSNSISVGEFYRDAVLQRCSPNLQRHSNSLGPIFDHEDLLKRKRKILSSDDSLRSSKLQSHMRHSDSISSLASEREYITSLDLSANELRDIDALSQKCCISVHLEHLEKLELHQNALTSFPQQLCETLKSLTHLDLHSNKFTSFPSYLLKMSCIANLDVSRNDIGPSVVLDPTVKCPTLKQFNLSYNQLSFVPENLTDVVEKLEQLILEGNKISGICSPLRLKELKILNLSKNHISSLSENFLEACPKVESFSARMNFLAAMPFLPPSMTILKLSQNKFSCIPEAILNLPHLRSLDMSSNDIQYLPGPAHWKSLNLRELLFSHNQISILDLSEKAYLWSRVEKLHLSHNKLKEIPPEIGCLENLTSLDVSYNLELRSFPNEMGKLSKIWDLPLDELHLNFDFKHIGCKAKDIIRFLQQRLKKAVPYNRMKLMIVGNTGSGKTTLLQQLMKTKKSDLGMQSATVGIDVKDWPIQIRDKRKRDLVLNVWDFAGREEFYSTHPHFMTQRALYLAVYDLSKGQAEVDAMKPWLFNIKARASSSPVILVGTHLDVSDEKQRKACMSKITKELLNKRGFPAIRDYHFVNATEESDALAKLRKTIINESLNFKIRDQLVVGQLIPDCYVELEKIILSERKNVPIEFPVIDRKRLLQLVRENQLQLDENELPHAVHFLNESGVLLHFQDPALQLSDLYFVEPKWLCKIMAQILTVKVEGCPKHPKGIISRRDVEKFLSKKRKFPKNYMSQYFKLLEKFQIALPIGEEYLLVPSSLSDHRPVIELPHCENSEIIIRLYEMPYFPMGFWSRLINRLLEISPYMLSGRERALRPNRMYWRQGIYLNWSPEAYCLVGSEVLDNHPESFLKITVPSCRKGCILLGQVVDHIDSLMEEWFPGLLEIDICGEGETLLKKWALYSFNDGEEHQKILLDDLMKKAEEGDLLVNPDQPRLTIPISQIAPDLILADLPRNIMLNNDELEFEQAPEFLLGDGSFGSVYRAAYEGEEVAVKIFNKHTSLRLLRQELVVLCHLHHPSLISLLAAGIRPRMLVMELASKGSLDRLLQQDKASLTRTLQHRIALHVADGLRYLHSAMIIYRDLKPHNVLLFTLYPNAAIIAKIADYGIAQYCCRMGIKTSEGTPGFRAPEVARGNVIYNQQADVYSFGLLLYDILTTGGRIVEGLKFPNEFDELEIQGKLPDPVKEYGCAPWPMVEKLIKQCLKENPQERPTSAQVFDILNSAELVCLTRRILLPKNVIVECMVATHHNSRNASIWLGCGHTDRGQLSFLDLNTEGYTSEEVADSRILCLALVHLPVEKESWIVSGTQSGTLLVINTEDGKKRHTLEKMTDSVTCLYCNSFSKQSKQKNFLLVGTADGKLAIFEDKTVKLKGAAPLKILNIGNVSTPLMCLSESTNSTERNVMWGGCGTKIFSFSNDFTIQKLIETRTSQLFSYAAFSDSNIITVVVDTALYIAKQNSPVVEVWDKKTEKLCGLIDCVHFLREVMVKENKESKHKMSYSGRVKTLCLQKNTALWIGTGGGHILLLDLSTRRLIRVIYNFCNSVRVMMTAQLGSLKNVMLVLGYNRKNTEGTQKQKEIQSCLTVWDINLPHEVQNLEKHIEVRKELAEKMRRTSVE
- assay.overview: LRRK2 degradation assay, wildtype LRRK2-HiBit expressed from plasmid in HEK293 cells
- Type: cell-based
- condition.set: HEK293 cells transfected with HiBit-tagged wildtype LRRK2, 24 hours compound incubation; read-out: **WT Dmax (%)
Catalogue of Dmax readings, one per entry.

Worked cases, answers included:
>  <molecule>
C[C@H]1CN(c2cc(-c3n[nH]c4ccc(OC5(C)CC5)cc34)ncn2)CCN1CCOCCOCCOCCOc1ccc2c(c1)C(=O)N(C1(C)CCC(=O)NC1=O)C2=O (stereo partly drawn)

>  <Dmax>
< 50%

$$$$
>  <molecule>
CC(C)Oc1ccc2[nH]nc(-c3cc(N4CCN(CCN5CCC(CN6CCN(c7ccc8c(c7)CN(C7CCC(=O)NC7=O)C8=O)CC6)CC5)[C@@H](C)C4)ncn3)c2c1 (stereo partly drawn)

>  <Dmax>
≥ 70%

$$$$

Lab note: next molecule to report on.
get_value(item= CC(C)Oc1ccc2[nH]nc(-c3cc(N4CCN(CCN5CC(OCCOc6ccc7c(c6)C(=O)N(C6CCC(=O)NC6=O)C7=O)C5)[C@@H](C)C4)ncn3)c2c1 (stereo partly drawn) , readout=Dmax) returns < 50%

###

Catalogue of DC50 readings, one per entry.
- test.system: wildtype LRRK2 (Homo sapiens, UniProt Q5S007)
- Construct: expressed in transfected cells; host or cells: HEK293 (ATCC CRL-1573), transient transfection, ubiquitin promoter
- assay.overview: LRRK2 degradation assay, wildtype LRRK2-HiBit expressed from plasmid in HEK293 cells
- Format: cell-based
- condition.set: HEK293 cells transfected with HiBit-tagged wildtype LRRK2, 24 hours compound incubation; read-out: *WT DC50

Worked cases, answers included:
>  <compound>
CC(C)Oc1ccc2[nH]nc(-c3cc(N4CCN(CCC5CCN(CC6CCN(c7ccc8c(c7)C(=O)N(C7CCC(=O)NC7=O)C8=O)CC6)CC5)CC4)ncn3)c2c1 (stereo not drawn)

>  <test.system>
wildtype LRRK2 (Homo sapiens, UniProt Q5S007)

>  <DC50>
10 to 50 nM

$$$$
>  <compound>
C[C@H]1CN(c2cc(-c3n[nH]c4ccc(OC5(C)CC5)cc34)ncn2)CCN1CC1CCN(CC2CCN(c3ccc4c(c3)C(=O)N(C3CCC(=O)NC3=O)C4=O)CC2)CC1 (stereo partly drawn)

>  <test.system>
wildtype LRRK2 (Homo sapiens, UniProt Q5S007)

>  <DC50>
< 10 nM

$$$$

Lab note: next compound to report on.
Short answer on wildtype LRRK2 (Homo sapiens, UniProt Q5S007) for CC(C)Oc1ccc2[nH]nc(-c3cc(N4CCN(CCCN(C)CCCN5CCN(c6ccc7c(c6)C(=O)N(C6CCC(=O)NC6=O)C7=O)CC5)[C@@H](C)C4)ncn3)c2c1 (stereo partly drawn) , DC50: 50 to 100 nM

###

Catalogue of Dmax readings, one per entry.
- test.system: wildtype LRRK2 (Homo sapiens, UniProt Q5S007)
- Construct: expressed in transfected cells; host or cells: HEK293 (ATCC CRL-1573), transient transfection, ubiquitin promoter
- assay.overview: LRRK2 degradation assay, wildtype LRRK2-HiBit expressed from plasmid in HEK293 cells
- Assay type: cell-based
- condition.set: HEK293 cells transfected with HiBit-tagged wildtype LRRK2, 24 hours compound incubation; read-out: **WT Dmax (%)

Worked cases, answers included:
>  <molecule>
CC(C)Oc1ccc2[nH]nc(-c3cc(N4CCN(CCOCCN5CCN(c6ccc7c(c6)C(=O)N(C6CCC(=O)NC6=O)C7=O)CC5)[C@@H](C)C4)ncn3)c2c1 (some centres unmarked)

>  <Dmax>
< 50%

$$$$
>  <molecule>
CC(C)Oc1ccc2[nH]nc(-c3cc(N4CCN(CCOCCOCCOc5ccc6c(c5)C(=O)N(C5CCC(=O)NC5=O)C6=O)[C@@H](C)C4)ncn3)c2c1 (some centres unmarked)

>  <Dmax>
< 50%

$$$$
>  <molecule>
CC1(Oc2ccc3[nH]nc(-c4cc(N5CCO[C@@H](CCOCCOCCOCCOc6ccc7c(c6)C(=O)N(C6CCC(=O)NC6=O)C7=O)C5)ncn4)c3c2)CC1 (some centres unmarked)

>  <Dmax>
≥ 70%

$$$$
>  <molecule>
CC(C)Oc1ccc2[nH]nc(-c3cc(N4CCN(CC(F)(F)C5CCN(CC6CCN(c7ccc8c(c7)C(=O)N(C7CCC(=O)NC7=O)C8=O)CC6)CC5)CC4)ncn3)c2c1 (centres unmarked)

>  <Dmax>
≥ 70%

$$$$

Lab note: next molecule to report on.
get_value(item= CC(C)Oc1cc2c(-c3ccnc(N4CCN(CCOCCOCCOCCOc5ccc6c(c5)C(=O)N(C5CCC(=O)NC5=O)C6=O)[C@@H](C)C4)c3)n[nH]c2cc1F (some centres unmarked) , readout=Dmax) returns ≥ 70%

###

- test.system: G2019S LRRK2 (Homo sapiens, UniProt Q5S007, G2019S)
- Construct: expressed in transfected cells; host or cells: HEK293 (ATCC CRL-1573), transient transfection, ubiquitin promoter
- Sequence (Q5S007 whole entry G2019S): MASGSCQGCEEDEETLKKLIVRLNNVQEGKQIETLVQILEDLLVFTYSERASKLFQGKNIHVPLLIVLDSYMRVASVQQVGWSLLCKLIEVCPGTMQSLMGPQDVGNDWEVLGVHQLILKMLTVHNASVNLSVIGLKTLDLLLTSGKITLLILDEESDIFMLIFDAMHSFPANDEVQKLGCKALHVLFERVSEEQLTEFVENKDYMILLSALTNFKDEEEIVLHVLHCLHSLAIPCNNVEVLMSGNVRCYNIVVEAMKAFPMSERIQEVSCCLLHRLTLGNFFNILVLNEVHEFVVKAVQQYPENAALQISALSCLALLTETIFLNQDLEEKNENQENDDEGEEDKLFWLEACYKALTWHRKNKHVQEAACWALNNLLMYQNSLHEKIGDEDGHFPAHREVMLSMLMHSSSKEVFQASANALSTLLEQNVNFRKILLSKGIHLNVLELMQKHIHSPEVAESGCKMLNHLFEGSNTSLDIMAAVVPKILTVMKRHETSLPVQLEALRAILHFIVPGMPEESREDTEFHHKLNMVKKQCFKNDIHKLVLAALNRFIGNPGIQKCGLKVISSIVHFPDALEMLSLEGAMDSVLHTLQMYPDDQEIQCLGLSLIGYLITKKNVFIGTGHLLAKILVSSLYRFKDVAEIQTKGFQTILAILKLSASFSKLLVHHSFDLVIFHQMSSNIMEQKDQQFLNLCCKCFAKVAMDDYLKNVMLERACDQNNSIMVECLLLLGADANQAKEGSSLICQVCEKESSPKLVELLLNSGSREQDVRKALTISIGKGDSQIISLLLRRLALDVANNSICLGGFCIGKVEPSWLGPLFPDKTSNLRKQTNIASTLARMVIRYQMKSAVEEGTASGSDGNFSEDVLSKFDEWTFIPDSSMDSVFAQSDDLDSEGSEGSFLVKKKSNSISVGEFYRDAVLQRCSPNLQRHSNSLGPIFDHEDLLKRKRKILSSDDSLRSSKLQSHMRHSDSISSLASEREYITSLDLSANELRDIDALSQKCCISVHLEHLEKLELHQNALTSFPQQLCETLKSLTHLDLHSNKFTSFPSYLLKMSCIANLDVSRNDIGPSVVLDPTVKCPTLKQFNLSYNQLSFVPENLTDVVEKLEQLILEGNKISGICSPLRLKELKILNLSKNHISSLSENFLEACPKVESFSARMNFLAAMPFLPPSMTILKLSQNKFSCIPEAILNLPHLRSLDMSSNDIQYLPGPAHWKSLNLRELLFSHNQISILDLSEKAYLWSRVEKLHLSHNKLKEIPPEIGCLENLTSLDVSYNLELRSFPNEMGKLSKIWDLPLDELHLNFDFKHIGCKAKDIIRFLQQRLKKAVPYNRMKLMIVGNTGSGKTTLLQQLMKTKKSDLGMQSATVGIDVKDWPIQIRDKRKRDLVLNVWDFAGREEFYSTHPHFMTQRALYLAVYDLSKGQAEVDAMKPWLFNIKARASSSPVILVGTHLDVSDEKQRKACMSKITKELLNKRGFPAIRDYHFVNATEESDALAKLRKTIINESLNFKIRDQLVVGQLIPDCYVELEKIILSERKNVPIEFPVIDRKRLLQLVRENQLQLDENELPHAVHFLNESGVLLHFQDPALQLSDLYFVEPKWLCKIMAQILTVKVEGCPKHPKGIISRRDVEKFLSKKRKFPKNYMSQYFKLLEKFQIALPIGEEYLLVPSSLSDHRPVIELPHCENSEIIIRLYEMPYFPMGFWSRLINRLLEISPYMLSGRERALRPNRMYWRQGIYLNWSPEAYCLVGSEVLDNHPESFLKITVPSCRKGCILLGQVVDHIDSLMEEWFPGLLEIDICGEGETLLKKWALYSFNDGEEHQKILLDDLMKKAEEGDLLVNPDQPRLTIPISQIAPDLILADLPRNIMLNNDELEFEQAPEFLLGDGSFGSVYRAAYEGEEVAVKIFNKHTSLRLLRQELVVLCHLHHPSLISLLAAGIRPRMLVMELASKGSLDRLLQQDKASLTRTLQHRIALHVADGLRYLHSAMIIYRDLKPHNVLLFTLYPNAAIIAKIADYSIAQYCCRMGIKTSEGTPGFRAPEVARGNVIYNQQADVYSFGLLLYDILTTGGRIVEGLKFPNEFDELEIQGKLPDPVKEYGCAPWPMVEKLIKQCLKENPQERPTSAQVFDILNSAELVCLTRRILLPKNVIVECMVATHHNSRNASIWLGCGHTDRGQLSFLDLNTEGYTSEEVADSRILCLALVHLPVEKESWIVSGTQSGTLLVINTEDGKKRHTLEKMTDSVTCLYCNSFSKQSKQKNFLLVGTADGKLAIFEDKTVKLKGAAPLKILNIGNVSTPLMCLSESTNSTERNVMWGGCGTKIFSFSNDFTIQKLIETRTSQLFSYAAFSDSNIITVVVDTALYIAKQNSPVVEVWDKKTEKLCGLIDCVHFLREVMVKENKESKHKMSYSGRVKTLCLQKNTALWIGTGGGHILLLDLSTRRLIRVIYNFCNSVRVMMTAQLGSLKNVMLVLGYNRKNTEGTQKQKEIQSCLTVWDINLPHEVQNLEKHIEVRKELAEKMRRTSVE
- assay.overview: LRRK2 degradation assay, G2019S LRRK2-HiBit expressed from plasmid in HEK293 cells
- Type: cell-based
- condition.set: HEK293 cells transfected with HiBit-tagged G2019S LRRK2, 24 hours compound incubation
- Method: The assay measures the degradation of wildtype and G2019S LRRK2 tagged with a HiBit tag on the C-terminus of the protein that was expressed from a mammalian expression vector, driven by the ubiquitin promoter in HEK293 cells. Each compound dose-response was repeated on two separate days, on three separate plates each day. […] While the transfection mixes were incubating, HEK293 cells (acquired from ATCC; ATCC CRL-1573) were harvested with trypsin. […] The cells were mixed well and counted. […]
Catalogue of Dmax readings, one per entry.

>  <molecule>
C[C@H]1CN(c2cc(-c3n[nH]c4ccc(OC5(C)CC5)cc34)ncn2)CCN1CCOCCOCCOCCOc1ccc2c(c1)C(=O)N(C1(C)CCC(=O)NC1=O)C2=O (some centres unmarked) [compound 19]

>  <measurement>
< 50%

$$$$
>  <molecule>
CC(C)Oc1ccc2[nH]nc(-c3cc(N4CCN(CCN5CCC(CN6CCN(c7ccc8c(c7)C(=O)N(C7CCC(=O)NC7=O)C8=O)CC6)CC5)CC4)ncn3)c2c1 (centres unmarked) [compound 27]

>  <measurement>
≥ 70%

$$$$

get_value(item= CC(C)Oc1ccc2[nH]nc(-c3cc(N4C[C@@H](C)N(CCOCCOCCOCCOc5ccc6c(c5)C(=O)N(C5CCC(=O)NC5=O)C6=O)[C@@H](C)C4)ncn3)c2c1 (some centres unmarked) [compound 10] , readout=Dmax) returns 50 to 70%

get_value(item= C[C@@H]1CN(c2cc(-c3n[nH]c4ccc(OC5(C)CC5)cc34)ncn2)C[C@H](C)N1CCOCCN1CCN(c2ccc3c(c2)C(=O)N(C2CCC(=O)NC2=O)C3=O)CC1 (some centres unmarked) [compound 21] , readout=Dmax) returns 50 to 70%

get_value(item= CC(C)Oc1ccc2[nH]nc(-c3cc(N4CCN(CCN(C)CCCN5CCN(c6ccc7c(c6)C(=O)N(C6CCC(=O)NC6=O)C7=O)CC5)[C@@H](C)C4)ncn3)c2c1 (some centres unmarked) [compound 36] , readout=Dmax) returns ≥ 70%

###

- test.system: wildtype LRRK2 (Homo sapiens, UniProt Q5S007)
- Construct: expressed in transfected cells; host or cells: HEK293 (ATCC CRL-1573), transient transfection, ubiquitin promoter
- assay.overview: LRRK2 degradation assay, wildtype LRRK2-HiBit expressed from plasmid in HEK293 cells
- Format: cell-based
- condition.set: HEK293 cells transfected with HiBit-tagged wildtype LRRK2, 24 hours compound incubation; read-out: **WT Dmax (%)
test.readout: Dmax

>  <compound>
CC(C)Oc1ccc2[nH]nc(-c3cc(N4CCN(CCN5CCC(CN6CCN(c7ccc8c(c7)C(=O)N(C7CCC(=O)NC7=O)C8=O)CC6)CC5)[C@@H](C)C4)ncn3)c2c1 (stereo partly drawn)

>  <measurement>
≥ 70%

$$$$
>  <compound>
CC(C)Oc1ccc2[nH]nc(-c3cc(N4CCN(CCN5CC6(CN(CCOc7ccc8c(c7)C(=O)N(C7CCC(=O)NC7=O)C8=O)C6)C5)[C@@H](C)C4)ncn3)c2c1 (stereo partly drawn)

>  <measurement>
< 50%

$$$$

Lab note: next compound to report on.
Short answer on wildtype LRRK2 (Homo sapiens, UniProt Q5S007) for CC(C)Oc1ccc2[nH]nc(-c3cc(N4CCN(CCCN(C)CCCN5CCN(c6ccc7c(c6)C(=O)N(C6CCC(=O)NC6=O)C7=O)CC5)[C@@H](C)C4)ncn3)c2c1 (stereo partly drawn) , Dmax: ≥ 70%

###

- test.system: G2019S LRRK2 (Homo sapiens, UniProt Q5S007, G2019S)
- Construct: expressed in transfected cells; host or cells: HEK293 (ATCC CRL-1573), transient transfection, ubiquitin promoter
- assay.overview: LRRK2 degradation assay, G2019S LRRK2-HiBit expressed from plasmid in HEK293 cells
- Assay type: cell-based
- condition.set: HEK293 cells transfected with HiBit-tagged G2019S LRRK2, 24 hours compound incubation
Catalogue of Dmax readings, one per entry.

>  <compound>
C[C@H]1CN(c2cc(-c3n[nH]c4ccc(OC5(C)CC5)cc34)ccn2)CCN1CCOCCOCCOCCOc1ccc2c(c1)C(=O)N(C1CCC(=O)NC1=O)C2=O (some centres unmarked)

>  <Dmax>
≥ 70%

$$$$
>  <compound>
CC(C)Oc1ccc2[nH]nc(-c3cc(N4CCN(CCN5CC6(CN(CCOc7ccc8c(c7)C(=O)N(C7CCC(=O)NC7=O)C8=O)C6)C5)[C@@H](C)C4)ncn3)c2c1 (some centres unmarked)

>  <Dmax>
< 50%

$$$$

get_value(item= CC(C)Oc1cc2c(-c3cc(N4CCN(CCOCCOCCOCCOc5ccc6c(c5)C(=O)N(C5CCC(=O)NC5=O)C6=O)[C@@H](C)C4)ncn3)n[nH]c2cc1F (some centres unmarked) , readout=Dmax) returns < 50%

get_value(item= CC(C)Oc1ccc2[nH]nc(-c3cc(N4CCO[C@@H](CCN5CCN(CC6CCN(c7ccc8c(c7)C(=O)N(C7CCC(=O)NC7=O)C8=O)CC6)CC5)C4)ncn3)c2c1 (some centres unmarked) , readout=Dmax) returns 50 to 70%

get_value(item= CC(C)Oc1ccc2[nH]nc(-c3cc(N4CCN(CCOCCOCCOCCOc5ccc6c(c5)C(=O)N(C5CCC(=O)NC5=O)C6=O)[C@@H](C)C4)ncn3)c2c1 (some centres unmarked) , readout=Dmax) returns < 50%

get_value(item= C[C@@H]1CN(c2cc(-c3n[nH]c4ccc(OC5(C)CC5)cc34)ncn2)C[C@H](C)N1CCOCCOCCOCCOc1ccc2c(c1)C(=O)N(C1CCC(=O)NC1=O)C2=O (some centres unmarked) , readout=Dmax) returns 50 to 70%
